Target: T1, recombinant hCTLA-4-mFc (human CTLA-4 extracellular domain with a C-terminal Fc portion of mouse IgG2a) (human)
T1 construct: also called dimeric CTLA-4 protein
T1 sequence (chain, as listed by the source limits assumed): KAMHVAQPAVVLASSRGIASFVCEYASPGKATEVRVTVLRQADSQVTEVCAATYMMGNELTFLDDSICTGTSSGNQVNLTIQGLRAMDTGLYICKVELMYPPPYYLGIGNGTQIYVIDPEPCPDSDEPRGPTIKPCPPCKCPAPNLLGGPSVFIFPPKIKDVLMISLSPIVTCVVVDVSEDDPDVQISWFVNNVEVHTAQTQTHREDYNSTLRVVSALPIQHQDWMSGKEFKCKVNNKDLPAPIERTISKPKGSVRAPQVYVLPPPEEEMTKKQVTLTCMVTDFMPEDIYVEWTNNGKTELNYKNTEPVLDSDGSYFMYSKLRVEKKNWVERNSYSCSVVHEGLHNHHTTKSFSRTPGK
Assay: competition ELISA, 200 pM hCTLA-4-mFc on plate-coated hB7-1-hIgG1-6His
READOUT LABEL: % Blockade (%)
Response body: numeric value in %, unit text excluded.

So for H1H19278P (antibody, human IgG1, V domains shown) VH: QVQLVESGGGVVQPGRSLRLSCAASGFTFSSYGMNWVRQAPGKGLEWVAVTWYDGSNKHYADSVKGRFTISRDNSKNTLYLQMYSLRAEDTAMYYCVRGGHLGAFDIWGQGTMVTVSS VL: EIVLTQSPGTLSLSPGERATLSCRASQSVSSYLAWYQQKPGQAPRLLIYGASSRATGIPDRFSGGGSGTDFTLTISRLEPEDFAVYYCQQYGSSPFTFGPGTKVDIK , the logged % Blockade turned out to be 99

So for H1H20375N (antibody, human IgG1, V domains shown, here with human IgG1 Fc (H1H)) VH: QLQLQESGPGLVKPSETLSFTCTVSGGSISSNYYYWGWVRQSPGKGLEWIGSIYHTGNAYDNPSLKSRVTISVDTSKNQFSLNLNSVTAADTAIYYCARHHSSSSWWYFDVWGRGTLVIVSS VL: EIVLTQSPDTLSLSPGERATLSCRASQTVSNSHLAWYQQKPGQAPRLLIYGTSSRATGIPDRFSGSGSGTDFSLTIIRLEPDDFAVYFCQQHESSPPTFGQGAKLEIK , the logged % Blockade turned out to be 13

So for H1H19274P (antibody, human IgG1, V domains shown) VH: QVQLQESGPGLVKPSETLSLTCTVSGGSINSYYWTWIRQPPGKGLEWIGYVYYSGSTTYNPSLKSRVTISVDTSKNQFFLNLNSVTAAETAVYYCARGTLGYYGMDVWGQGTTVTVSS VL: EIVLTQSPGTLSLSPGERATLSCRASQSFSNNYLAWYQQKPGQAPRLLIYGTSIRATGIPDRFSGSGSGTDFTLAISRLEPEDFAVYYCQQYGRSPLTFGGGTKVEIK , the logged % Blockade turned out to be 99

So for H1H20361N (antibody, human IgG1, V domains shown, here with human IgG1 Fc (H1H)) VH: QVQLQESGPGLVKPSQTLSLTCTVSGGSINNGGHYWTWIRQHPGKGLEWIGYIYYIGTTYYNPSLESRLSLSVDTSKNQFSLKLSSVTAADTAIYYCARSSLSVSEAFDVWGQGTMVTVSS VL: DIQMTQSPSSLSASVGDRITITCRGSQNIGSFLSWYQQRPGKAPKLLIFGAYNLQGGVPSRFSGSGSGTDFTLTISSLQPEDFATYFCQQSYSTPPITFGQGTRLEIK , the logged % Blockade turned out to be 73

So for H1H19303P (antibody, human IgG1, kappa, V domains shown, also called REGN4659) VH: EVQLVESGGGLVQPGGSLRLSCAASGFTFSNYEMSWVRQAPGKGLEWVSSIRTSGTTKYYADSMKGRFTISRDNAKNSLYLQMNSLRAEDTAVYYCAGGGTFLHYWGQGTLVTVSS VL: DIQMTQSPSSVSASVGDRVTITCRASQGIASYLAWYQQKPGKAPKLLIYAASSLQTGVPSRFSGSGYGTDFTLTISSLQPEDFATYYCQQAKSFPMYTFGQGTKLEIKR , the logged % Blockade turned out to be 90

So for H1H19284P (antibody, human IgG1, V domains shown) VH: EVQLVESGGGLVQPGGSLRLSCAASGFTLSNYVMTWVRQAPGKGLEWVSAISGRGGNSYYADSVKGRFSISRDHSKNTLYLQVNSLRAEDTAVYYCAKAERGYSYGFNWFDPWGQGTLVTVSS VL: DIQMTQSPSSVSASAGDRVTITCRASQGISSWLAWYQQKPGKAPKLLIYAASSLQSGVPSRFSGSGSGTDFTLTISSLQPEDFASYYCQQGNNFPLTFGGGTKVEIK , the logged % Blockade turned out to be 98

So for H1H19273P (antibody, human IgG1, V domains shown) VH: QITLKESGPTLVKPTQTLTLTCTFSGFSLSTSGVGVGWIRQSPGRALEWLALIYWNDHERYSPSLKSRLTITKDTSKNLVVLAMANMDPVDTATYFCAHRNIEYRRSYFFDYWGQGTLVTVSS VL: DIQMTQSPSSVSASVRDRVTVTCRASQDINNWLAWYQQKPGKAPKLLIYAASSLQSGVPSRFSGSGSGTDFTLTISSLQPEDFATYYCQQANTFPFTFGPGTKVDIK , the logged % Blockade turned out to be 98

So for H1H19312P (antibody, human IgG1, V domains shown) VH: QVQLQESGPGLVKPSETLSLTCTVSGGSISSYHWSWIRQPLGKGLEWIGYIYYSGSTNYNPSLKSRVTISVDTSKNQFSLKLSSVTAADTAVYYCARGGSSIWPFDYWGQGTLVTVSS VL: DIQMTQSPSTLSASVGDRVTITCRASQSISSWLAWYQQKSGKAPKLLISKASTLESGVPSRFSGSGSGTEFTLTISSLQPDDFATYYCQQYNIYSWTFGQGTKVEIK , the logged % Blockade turned out to be 97

So for H1H19313P (antibody, human IgG1, V domains shown) VH: QITLKESGPTLVKPTQTLTLTCTFSGFSLSTSGVGVGWIRQPPGVALEWLALIYWNDDKRFSPSLKSRLTITKDTSKNQVVLTMTNMDPVDTATYYCAHRRLGLYYFDYWGQGTLVTVSS VL: DIQLTQSPSFLSASVGDRVTITCWASQGISSYLAWYQQKPGKAPKLLIYAASTLQSGVPSRFSGSGSGTEFTLTISSLQPEDFATYYCQQVHIYPFTFGPGTKVDIK , the logged % Blockade turned out to be 98

So for H1H19280P (antibody, human IgG1, V domains shown) VH: QLQLQESGPGLVKPSETLSLTCIVSGGSTSSNTYYWGWIRQPPGKGLEWIGTIHYSGNPYYDPSLKSRVTISVDTSKNHFSLKLNSVTAADTAVYYCTRQYINFFDFWGQGTLVTVSS VL: EIVLTQSPATLSLSPGERVTLSCRASQSISRYLAWYQQKPGQAPRVLIYDASNRATDIPARFSGSGSGTDFTLTISSLEPEDFAVYYCQQRSNWPITFGQGTRLEIK , the logged % Blockade turned out to be 99

So for H1H19307P (antibody, human IgG1, V domains shown) VH: EVQLVESGGGLVQPGGSLRLACAASGFTFSDYYMDWVRQVPGKGLEWVGRSRDKANSFTTEYVASVKGRFTISREDSKNSVYLQMNSLKTEDTAVYYCARTNYDFSLDVWGQGTTVTVSS VL: DIQMTQSPSSLSASVGDRVTITCRASQDINNYLAWFQQKPGNAPKSLIYAASSLQSGVPSKFSGSGSGTDFTLTISSLQPEDFATYYCQQYSTYPITFGQGTRLEIK , the logged % Blockade turned out to be 99
